- targetUnderTest: Proteinase 3 (PR3)
- testDetails: Enzymatic activity assay, PR3 (FRET peptide Abz-VADnVADYQ-EDDnp)
- Assay type: biochemical, human
- conditionInfo: selectivity: PR3 IC50 with respect to HNE IC50
assayReadout: IC50 ratio (PR3/HNE)
Give only the figure.

compound	targetUnderTest	assayValue
CNc1nc2n(n1)[C@H](c1ccc(C#N)cc1)C(C#N)=C(C)N2c1cccc(C(F)(F)F)c1 [Compound 5]	Proteinase 3 (PR3)	146
CNC(=O)Nc1nc2n(n1)[C@H](c1ccc(C#N)cc1)C(C#N)=C(C)N2c1cccc(C(F)(F)F)c1 [Compound 8]	Proteinase 3 (PR3)	74
COC(=O)Nc1nc2n(n1)[C@H](c1ccc(C#N)cc1)C(C#N)=C(C)N2c1cccc(C(F)(F)F)c1 [Compound 7]	Proteinase 3 (PR3)	19

API: the following record is the query input.
Task: Supply recorded IC50 ratio (PR3/HNE) for CC1=C(C#N)[C@@H](c2ccc(C#N)cc2)n2nc(NC(=O)C3CC3)nc2N1c1cccc(C(F)(F)F)c1 [Compound 6] here.
Result: 13
